# measurement-description: in vivo
# condition-context: both, ICR, mouse, in vivo, iv
assay-metric: LD50 (mg/kg)
Output spec: scalar in mg/kg, unitless text.

*Q* May I ask what LD50 has been recorded for CC(C)c1cccc(C(C)S(C)(=O)=O)c1O (centres unmarked) ?
*A* 35

*Q* Ok, now CCS(=O)(=O)[C@H](C)c1cccc([C@H](C)C2CC2)c1O
*A* 14

*Q* Ok, now CC(C)c1cccc(C(C)C)c1O [Control group 1, propofol, reference compound]
*A* 31

*Q* Ok, now CC(c1cccc(C(C)[S+](C)[O-])c1O)C1CC1 (centres unmarked)
*A* 10

*Q* Ok, now CCS(=O)(=O)[C@@H](C)c1cccc([C@H](C)C2CC2)c1O
*A* 3.5

*Q* Ok, now CC(C)c1cccc(C(C)[S+](C)[O-])c1O (centres unmarked)
*A* 17

*Q* Ok, now CCS(=O)(=O)[C@@H](C)c1cccc([C@@H](C)C2CC2)c1O
*A* 18

*Q* Ok, now CC(c1cccc(C(C)S(C)(=O)=O)c1O)C1CC1 (centres unmarked)
*A* 10

*Q* Ok, now CC(C)c1cccc(C(C)C2CC2)c1O (centres unmarked) [Control group 2, ciprofol, reference compound]
*A* 17

*Q* Ok, now CC(C)c1cccc([C@H](C)C2CC2)c1O [Control group 3, ciprofol, reference compound]
*A* 6

*Q* Ok, now CCC(c1cccc(C(C)C2CC2)c1O)S(C)(=O)=O (centres unmarked)
*A* 12

*Q* Ok, now CCS(=O)(=O)C(C)c1cccc(C(C)C2CC2)c1O (centres unmarked)
*A* 11

*Q* Ok, now CC(c1cccc(C(C)S(=O)(=O)C(C)C)c1O)C1CC1 (centres unmarked)
*A* 34

*Q* Ok, now CCS(=O)(=O)[C@H](C)c1cccc([C@@H](C)C2CC2)c1O
*A* 6

FYI, the data here is from patent US20240132445A1.
